B1: ZNF263 (parent)
chain: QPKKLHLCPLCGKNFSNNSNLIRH

Variants of: B1
Assay: protein stability index of a GFP-peptide fusion (GPS, HEK-293T) (PSI 1-6); higher = more stable;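 also: lentivirally expressed fusions sorted by FACS into six bins by GFP to DsRed ratio, PSI derived from sequencing read proportions per bin multiplied by bin number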
Settings: c terminus: a fixed tail appended
Form field: protein stability index (one value per entry).
Keep the answer to the number alone.

K13M :: 2.69
L10P :: 2.62
G12H :: 2.4
N18S :: 2.39
L10C :: 4.03

[Q] Using the record for L21H , report its protein stability index.
[A] 2.83

[Q] Input R23Y
[A] 1.91

[Q] Input C8I
[A] 2.61

[Q] Input L21C
[A] 3.13

[Q] Input N20K
[A] 3

[Q] Input N20M
[A] 2.54

[Q] Input R23V
[A] 2.33

[Q] Input K4Q
[A] 3.03

[Q] Input C11G
[A] 2.56

[Q] Input N17K
[A] 2.28

[Q] Input P9F
[A] 1.93

[Q] Input G12E
[A] 2
